For each record, write down the corresponding Normal boiling temperature.
setup_conditions: Liquid; Ebulliometric method (Recirculating still)
Numbers after ± are expanded uncertainties.
Number first, unit second.

Return Normal boiling temperature for the following molecule: `Cc1ccccc1`
110.2 ± 1 °C

Input `CCCCCCC` , output reported Normal boiling temperature.
98.2 ± 1 °C

Specify Normal boiling temperature for `Cc1ccccc1C` and stop.
144.4 ± 1 °C

Let me know recorded Normal boiling temperature for `CCCCCCCCC` , thanks.
150.7 ± 1 °C

Indicate the recorded Normal boiling temperature value for this molecule: `c1ccccc1`
80.2 ± 1 °C

###

setup_conditions: 298.2 K; 101.33 kPa; Liquid; Vibrating tube method
Kindly supply the reported mass density values for the records listed here.
Dear colleague, please return just the value in kg/m3, with no unit written.

Quickly give me recorded mass density for `CCCCCCC`
679.52

Tell me its mass density given `CCCCCCCCC` as the entry.
714.07

Output measured mass density for this item: `Cc1ccccc1`
862.18

Look up mass density of `Cc1ccccc1C` and report it.
875.66

State its mass density: `c1ccccc1`
873.66
